target: Gram Negative E. coli RelA (Escherichia coli, UniProt P0AG20)
Construct: made in house; host or cells: deltaRelA E. coli cells, IPTG induced
Sequence (P0AG20 whole entry): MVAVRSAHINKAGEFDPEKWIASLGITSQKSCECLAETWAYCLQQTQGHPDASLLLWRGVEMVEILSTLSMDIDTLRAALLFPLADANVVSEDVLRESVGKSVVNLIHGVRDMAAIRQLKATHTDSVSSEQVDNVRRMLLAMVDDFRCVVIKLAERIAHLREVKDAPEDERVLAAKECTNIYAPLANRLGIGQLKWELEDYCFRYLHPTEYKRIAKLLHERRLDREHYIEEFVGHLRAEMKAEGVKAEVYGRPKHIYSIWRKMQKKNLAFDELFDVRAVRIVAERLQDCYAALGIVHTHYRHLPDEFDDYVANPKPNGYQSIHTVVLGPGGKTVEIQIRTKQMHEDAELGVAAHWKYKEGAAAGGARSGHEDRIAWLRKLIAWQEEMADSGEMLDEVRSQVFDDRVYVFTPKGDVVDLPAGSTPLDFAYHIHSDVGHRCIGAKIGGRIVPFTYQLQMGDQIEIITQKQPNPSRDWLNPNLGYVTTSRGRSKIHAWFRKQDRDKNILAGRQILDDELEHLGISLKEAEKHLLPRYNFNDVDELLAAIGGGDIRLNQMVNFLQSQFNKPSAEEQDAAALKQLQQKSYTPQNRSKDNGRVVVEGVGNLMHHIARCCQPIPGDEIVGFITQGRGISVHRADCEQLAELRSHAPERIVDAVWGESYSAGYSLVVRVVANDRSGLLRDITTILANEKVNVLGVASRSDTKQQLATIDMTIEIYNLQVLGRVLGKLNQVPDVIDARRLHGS
protocol.details: In vitro (p)ppGpp accumulation, RelA synthetic activity
Format: biochemical
test.context: separate experiment; figure only; presented as % inhibition vs. compound concentration
property: inhibitory effect on RelA synthetic activity in vitro

| compound | result.value |
| --- | --- |
| CC1(C)OC2C(COP(=O)(O)CP(=O)(O)O)OC(n3cnc4c(=O)[nH]c(N)nc43)C2O1 (stereo not drawn) [Compound E3b] | inhibitory effect |
| Nc1nc2c(ncn2[C@@H]2O[C@H](COP(=O)(O)CP(=O)(O)O)C(OP(=O)(O)CP(=O)(O)O)C2O)c(=O)[nH]1 (stereo partly drawn) [Compound D1c] | inhibitory effect |
| Nc1nc2c(ncn2[C@@H]2O[C@H](COP(=O)(O)CP(=O)(O)O)C(O)C2OP(=O)(O)CP(=O)(O)O)c(=O)[nH]1 (stereo partly drawn) [Compound D2b] | inhibitory effect |

----------
target: Gram Negative E. coli RelA (Escherichia coli, UniProt P0AG20)
Construct: made in house; host or cells: deltaRelA E. coli cells, IPTG induced
protocol.details: In vitro (p)ppGpp accumulation, RelA synthetic activity
Type: biochemical
test.context: figure only; presented as pmol (p)ppGpp per mg RelA vs. compound concentration; 0-10 mM inhibitor
property: inhibitory effect on RelA synthetic activity in vitro

| compound | result.value |
| --- | --- |
| Nc1nc2c(ncn2[C@@H]2O[C@H](COP(=O)(O)CP(=O)(O)O)C(O)C2O)c(=O)[nH]1 (stereo partly drawn) [Compound A1] | inhibitory effect |
| Nc1nc2c(ncn2[C@H]2CC(OP(=O)(O)CP(=O)(O)O)[C@@H](COP(=O)(O)CP(=O)(O)O)O2)c(=O)[nH]1 (stereo partly drawn) [Compound D3] | inhibitory effect |
| CC(C)C(=O)Nc1nc2c(ncn2C2OC(COP(=O)(O)CP(=O)(O)O)C(O[Si](C)(C)C(C)(C)C)C2OP(=O)(O)CP(=O)(O)O)c(=O)[nH]1 (stereo not drawn) [Compound D6] | inhibitory effect |

----------
target: Gram Negative E. coli RelA (Escherichia coli, UniProt P0AG20)
Construct: made in house; host or cells: deltaRelA E. coli cells, IPTG induced
protocol.details: In vitro (p)ppGpp accumulation, RelA synthetic activity
Format: biochemical
test.context: figure only; presented as pmol (p)ppGpp per mg RelA vs. compound concentration; 0-10 mM inhibitor
property: inhibitory effect on RelA synthetic activity in vitro

| compound | result.value |
| --- | --- |
| CC(C)C(=O)Nc1nc2c(ncn2C2OC(COP(=O)(O)CP(=O)(O)O)C(OP(=O)(O)CP(=O)(O)O)C2O[Si](C)(C)C(C)(C)C)c(=O)[nH]1 (stereo not drawn) [Compound D7] | inhibitory effect |
| CC1(C)OC2C(COP(=O)(O)CP(=O)(O)O)OC(n3cnc4c(=O)[nH]c(N)nc43)C2O1 (stereo not drawn) [Compound E3b] | inhibitory effect |
| CC(C)C(=O)Nc1nc2c(ncn2C2OC(COP(=O)(O)CP(=O)(O)O)C(OP(=O)(O)CP(=O)(O)O)C2O)c(=O)[nH]1 (stereo not drawn) [Compound D8] | inhibitory effect |
